# Test system: HCMV engineered virus RC256
# assay text: microbe, parasite or virus in culture
# Type: cell-based, human cytomegalovirus
# test parameters: Human betaherpesvirus 5, Fibroblast, read-out: Antiviral Activity RC256, first value (EC50)
Would you mind telling me the reported pEC50 of each entry?
pEC50 (log units): -log10 of the concentration in mol/L.

Please fill in: pEC50 reported for Cc1cccc2nc(N[C@H](C)c3ccccc3)oc(=O)c12 = 4.77

Please fill in: pEC50 reported for Cc1c(CNC(=O)OC(C)(C)C)ccc2nc(N[C@@H](Cc3ccccc3)C(=O)N(C)Cc3cccnc3)oc(=O)c12 = 4.80

Please fill in: pEC50 reported for COc1ccc(C[C@H](Nc2nc3ccc(CNC(=O)OC(C)(C)C)c(C)c3c(=O)o2)C(=O)N2CCOCC2)cc1 = 4.80

====

# Tested on: HCMV engineered virus RC256
# assay text: microbe, parasite or virus in culture
# Type: cell-based, human cytomegalovirus
# test parameters: Human betaherpesvirus 5, Fibroblast, read-out: Antiviral Activity RC256, first value (EC50)
pEC50: −log10 of the molar value.
label 1 means recorded pEC50 is 5 or above; label 0 means it is below 5.

Hi, just wondering whether CCOC(=O)NCc1ccc2nc(N[C@@H](Cc3ccc(OC)cc3)C(=O)N(C)Cc3ccccc3)oc(=O)c2c1C shows pEC50 of 5 or higher. label 0

Hi, just wondering whether CCN(C(=O)[C@H](Cc1ccc(OC)cc1)Nc1nc2ccc(CNC(=O)OC(C)(C)C)c(C)c2c(=O)o1)c1ccccc1 shows pEC50 of 5 or higher. label 0

Hi, just wondering whether COc1ccc(C[C@H](Nc2nc3ccc(CNC(=O)Oc4ccccc4)c(C)c3c(=O)o2)C(=O)N(C)Cc2ccccc2)cc1 shows pEC50 of 5 or higher. label 0

Hi, just wondering whether COC(=O)[C@H](Cc1ccc(OC)cc1)Nc1nc2ccc(NC(=O)OC(C)(C)C)c(C)c2c(=O)o1 shows pEC50 of 5 or higher. label 0

Hi, just wondering whether COc1ccc(C[C@H](Nc2nc3ccc(NC(=O)OCc4ccccc4)c(C)c3c(=O)o2)C(=O)N(C)Cc2ccccc2)cc1 [Example 11t] shows pEC50 of 5 or higher. label 0

Hi, just wondering whether Cc1c(CNC(=O)CCc2ccccc2)ccc2nc(N[C@@H](Cc3ccccc3)C(=O)N(C)Cc3cccnc3)oc(=O)c12 shows pEC50 of 5 or higher. label 0

Hi, just wondering whether COc1ccc(C[C@H](Nc2nc3ccc(NC(=O)OC(C)(C)C)c(C)c3c(=O)o2)C(=O)NCc2ccccn2)cc1 shows pEC50 of 5 or higher. label 1

Hi, just wondering whether COc1ccc(C[C@H](Nc2nc3ccc(CNC(=O)OC(C)(C)C)c(C)c3c(=O)o2)C(=O)N(C)c2ccc(Cl)cc2)cc1 shows pEC50 of 5 or higher. label 1

Hi, just wondering whether Cc1c(CNC(=O)N(C)c2ccccc2)ccc2nc(N[C@@H](Cc3ccccc3)C(=O)N(C)Cc3ccccc3)oc(=O)c12 [Example 12i] shows pEC50 of 5 or higher. label 1

Hi, just wondering whether COC(=O)[C@H](C)Nc1nc2ccc(NS(=O)(=O)c3ccccc3)c(C)c2c(=O)o1 [Example 13a] shows pEC50 of 5 or higher. label 0

Hi, just wondering whether Cc1c(CNC(=O)OC(C)(C)C)ccc2nc(N[C@@H](Cc3ccccc3)C(=O)N(C)c3ccccc3)oc(=O)c12 shows pEC50 of 5 or higher. label 1

Hi, just wondering whether COC(=O)[C@H](Cc1ccc(I)cc1)Nc1nc2ccc(NC(=O)OC(C)(C)C)c(C)c2c(=O)o1 shows pEC50 of 5 or higher. label 0

Hi, just wondering whether Cc1c(CNC(=O)Oc2ccccc2)ccc2nc(N[C@@H](Cc3ccccc3)C(=O)N(C)Cc3ccccc3)oc(=O)c12 shows pEC50 of 5 or higher. label 0

Hi, just wondering whether COc1ccc(C[C@H](Nc2nc3ccc(N(C)C)c(C)c3c(=O)o2)C(=O)N(C)Cc2ccccc2)cc1 [Example 16a] shows pEC50 of 5 or higher. label 0

Hi, just wondering whether COc1ccc(C[C@H](Nc2nc3ccc(CNC(=O)OC(C)(C)C)c(C)c3c(=O)o2)C(=O)N(C)c2ccccc2)cc1 shows pEC50 of 5 or higher. label 0

Hi, just wondering whether COc1ccc(C[C@H](Nc2nc3ccc(NC(=O)OC(C)(C)C)c(C)c3c(=O)o2)C(=O)N2CCOCC2)cc1 shows pEC50 of 5 or higher. label 0

Hi, just wondering whether COc1ccc(C[C@H](Nc2nc3ccc(NC(=O)c4ccco4)c(C)c3c(=O)o2)C(=O)N(C)Cc2ccccc2)cc1 [Example 11u] shows pEC50 of 5 or higher. label 0

Hi, just wondering whether COc1ccc(C[C@H](Nc2nc3ccc(NC(=O)OC(C)(C)C)c(C)c3c(=O)o2)C(=O)N(C)Cc2ccccc2)cc1 shows pEC50 of 5 or higher. label 0

Hi, just wondering whether CCN(Cc1ccccc1)C(=O)[C@H](Cc1ccccc1)Nc1nc2ccc(N)c(C)c2c(=O)o1 shows pEC50 of 5 or higher. label 0

Hi, just wondering whether Cc1c(CNC(=O)OC(C)(C)C)ccc2nc(N[C@@H](Cc3ccccc3)C(=O)N(C)Cc3ccccc3)oc(=O)c12 shows pEC50 of 5 or higher. label 0

Hi, just wondering whether Cc1c(CNC(=O)N[C@H](C)c2ccccc2)ccc2nc(N[C@@H](Cc3ccccc3)C(=O)N(C)Cc3ccccc3)oc(=O)c12 [Example 12g] shows pEC50 of 5 or higher. label 0

Hi, just wondering whether Cc1cccc2nc(N[C@@H](C)C(=O)OC(C)(C)C)oc(=O)c12 shows pEC50 of 5 or higher. label 0

====

# tested system: Human leukocyte elastase (HLE) (Homo sapiens, UniProt P08246)
# Construct: gift of R. Senior, Washington University
# Sequence (P08246 30-267): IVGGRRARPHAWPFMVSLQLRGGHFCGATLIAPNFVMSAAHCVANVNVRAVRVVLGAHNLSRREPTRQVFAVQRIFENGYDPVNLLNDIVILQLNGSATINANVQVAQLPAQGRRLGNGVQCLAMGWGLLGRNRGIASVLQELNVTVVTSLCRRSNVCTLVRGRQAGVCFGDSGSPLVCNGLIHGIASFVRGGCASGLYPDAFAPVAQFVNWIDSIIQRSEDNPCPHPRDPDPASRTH
# assay text: Human leukocyte elastase assay
# Type: biochemical
# test parameters: @ 10 (concentration unit not given)
observed property: HLE, % @ concentration (% @ 10)
API: value field is a number in % @ 10; no unit string.

Please fill in: HLE, % @ concentration reported for Cc1c(N(C)C)ccc2nc(N[C@@H](Cc3ccccc3)C(=O)N(C)Cc3ccccc3)oc(=O)c12 = 59

Please fill in: HLE, % @ concentration reported for Cc1c(NCc2ccccc2)ccc2nc(N[C@@H](Cc3ccccc3)C(=O)N(C)Cc3ccccc3)oc(=O)c12 [Example 17d] = 48

Please fill in: HLE, % @ concentration reported for Cc1c(CNC(=O)Oc2ccccc2)ccc2nc(N[C@@H](Cc3ccccc3)C(=O)N(C)Cc3ccccc3)oc(=O)c12 = 47

Please fill in: HLE, % @ concentration reported for CCOC(=O)NCc1ccc2nc(N[C@@H](Cc3ccc(OC)cc3)C(=O)N(C)Cc3ccccc3)oc(=O)c2c1C = 27

Please fill in: HLE, % @ concentration reported for CCN(C(=O)[C@H](Cc1ccc(OC)cc1)Nc1nc2ccc(CNC(=O)OC(C)(C)C)c(C)c2c(=O)o1)c1ccccc1 = 75

Please fill in: HLE, % @ concentration reported for COc1ccc(C[C@H](Nc2nc3ccc(CNC(=O)OC(C)(C)C)c(C)c3c(=O)o2)C(=O)N(C)c2ccccc2)cc1 = 20

Please fill in: HLE, % @ concentration reported for Cc1c(CNC(=O)c2ccccn2)ccc2nc(N[C@@H](Cc3ccccc3)C(=O)N(C)Cc3ccccc3)oc(=O)c12 = 55

Please fill in: HLE, % @ concentration reported for COC(=O)C1(Nc2nc3ccc(NC(=O)OC(C)(C)C)c(C)c3c(=O)o2)CC1 = 25

Please fill in: HLE, % @ concentration reported for COc1ccc(C[C@H](Nc2nc3ccc(NC(=O)c4ccco4)c(C)c3c(=O)o2)C(=O)N(C)Cc2ccccc2)cc1 [Example 11u] = 19

====

# Tested on: HCMV engineered virus RC256
# assay text: microbe, parasite or virus in culture
# Type: cell-based, human cytomegalovirus
# test parameters: Human betaherpesvirus 5, Fibroblast, read-out: Antiviral Activity RC256, first value (EC50)
Would you mind telling me the reported EC50 of each entry?
API: value field is a number in µM; no unit string.

Tested on HCMV engineered virus RC256: Cc1c(NC(=O)OC(C)(C)C)ccc2nc(N[C@@H](C)c3ccccc3)oc(=O)c12 [Example 6m] . Observed EC50: 50

Tested on HCMV engineered virus RC256: CCOC(=O)NCc1cc(Br)c2nc(N[C@@H](Cc3ccccc3)C(=O)N(C)Cc3ccccc3)oc(=O)c2c1C [Example 15b] . Observed EC50: 16

Tested on HCMV engineered virus RC256: COc1ccc(C[C@H](Nc2nc3ccc(CNC(=O)OC(C)(C)C)c(C)c3c(=O)o2)C(=O)N(C)CCc2ccccc2)cc1 [Example 7q] . Observed EC50: 22

Tested on HCMV engineered virus RC256: COc1ccc(C[C@H](Nc2nc3ccc(CNC(=O)CCc4ccncc4)c(C)c3c(=O)o2)C(=O)N(C)Cc2ccccc2)cc1 [Example 9f] . Observed EC50: 40
